Entries annotated with measured self-cleavage
B1: Twister Ribozyme (parent)
chain: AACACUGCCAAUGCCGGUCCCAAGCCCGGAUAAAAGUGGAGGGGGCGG

# Variants of: B1
# Assay: self-cleavage, relative activity (ratio to wild type); higher = more cleavage; co-transcriptional
I only need the number, thanks.

Example cases with answers are listed next.
AACACUGCCAAUGCCGGUUCCAAGCCCGUAUAAAAGUGGAGGGGGCGG 0.836
AACACUGCCAAUGCCGGUUCCAAGCCUGGAUAAAAGUGGAGGGGGCGG 0.802
AACACUGCCAAUGCCGAUCCCAAGCCCGGAUAAAAGUGGAGGCGGCGG 0.129
AACAGUGCCAAUGCCGGCCCCAAGCCCGGAUAAAAGUGGAGGGGGCGG 0.196
AACACUGCCAAUGCCGGUCCCAAUCCCGGAUAAAUGUGGAGGGGGCGG 0.175
ACCACCGCCAAUGCCGGUCCCAAGCCCGGAUAAAAGUGGAGGGGGCGG 0.0549
AACACUGGCAAUGCCGUUCCCAAGCCCGGAUAAAAGUGGAGGGGGCGG 0.0532
AACACUGCCAAUGCCAGUCCCAAGCCCGGAUAAAAGUGGAGCGGGCGG 0.241
AACACUGCCAAUGCCGGACCCAAUCCCGGAUAAAAGUGGAGGGGGCGG 0.094
AACACUGCCAAUGCCGGUCCCAAGCCCGGAUAAAAGUGGAUGGGGCGG 0.752

In: Query: self-cleavage; subject: AACACUGCCAAAGCCGGUCCCAAGACCGGAUAAAAGUGGAGGGGGCGG
Out: 0.15

Reference for the values: the RNAGym collection of RNA variant scans (doi:10.7554/elife.80360)
